# target.under.test: Voltage-gated inwardly rectifying potassium channel KCNH2 (Homo sapiens, UniProt Q12809)
# Sequence (Q12809 whole entry): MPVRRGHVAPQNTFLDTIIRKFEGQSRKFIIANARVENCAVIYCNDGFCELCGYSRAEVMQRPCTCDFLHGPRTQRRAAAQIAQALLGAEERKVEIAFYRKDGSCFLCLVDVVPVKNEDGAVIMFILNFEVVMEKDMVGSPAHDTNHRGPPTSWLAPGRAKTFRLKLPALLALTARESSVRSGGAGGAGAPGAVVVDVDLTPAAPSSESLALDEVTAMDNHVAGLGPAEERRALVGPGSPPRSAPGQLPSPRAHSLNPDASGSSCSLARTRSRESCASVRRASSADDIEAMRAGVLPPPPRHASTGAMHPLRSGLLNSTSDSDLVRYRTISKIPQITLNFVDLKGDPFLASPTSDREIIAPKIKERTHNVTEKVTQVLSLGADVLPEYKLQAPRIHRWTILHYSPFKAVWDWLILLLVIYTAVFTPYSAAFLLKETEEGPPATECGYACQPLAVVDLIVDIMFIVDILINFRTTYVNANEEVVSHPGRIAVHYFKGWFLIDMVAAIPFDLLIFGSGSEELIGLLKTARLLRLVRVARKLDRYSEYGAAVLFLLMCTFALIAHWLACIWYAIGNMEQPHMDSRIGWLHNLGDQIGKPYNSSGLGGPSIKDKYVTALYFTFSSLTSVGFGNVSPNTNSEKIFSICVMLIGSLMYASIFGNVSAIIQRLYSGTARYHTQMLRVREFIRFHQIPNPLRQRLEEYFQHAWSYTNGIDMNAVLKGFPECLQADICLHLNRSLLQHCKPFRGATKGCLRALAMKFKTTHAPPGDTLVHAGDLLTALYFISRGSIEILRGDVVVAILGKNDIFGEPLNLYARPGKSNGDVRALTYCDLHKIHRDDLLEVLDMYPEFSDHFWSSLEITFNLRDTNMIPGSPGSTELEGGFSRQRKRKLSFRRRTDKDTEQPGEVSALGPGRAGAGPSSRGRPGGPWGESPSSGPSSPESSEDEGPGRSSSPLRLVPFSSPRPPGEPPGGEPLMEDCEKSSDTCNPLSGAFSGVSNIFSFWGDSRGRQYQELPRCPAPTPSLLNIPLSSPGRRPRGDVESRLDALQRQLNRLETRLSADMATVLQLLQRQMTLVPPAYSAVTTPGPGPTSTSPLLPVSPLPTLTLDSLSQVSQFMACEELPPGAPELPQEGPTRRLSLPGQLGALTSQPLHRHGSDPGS
pIC50: −log10 of the molar value.
measured.metric: pIC50

Item CC(C)(O)[C@H]1CC[C@H](NC(=O)c2cnc3nc(C4CC4)ccc3c2)CC1 ; assay system Voltage-gated inwardly rectifying potassium channel KCNH2 (Homo sapiens, UniProt Q12809); pIC50 reported as < 4.10

---

# assay.info: Oral bioavailability in rat at 2.4 mg/kg
# Assay type: ADME, organism-based
# assay.setup: in vivo
measured.metric: bioavailability (%)
The answer is to be given in %; state only the numeric part.

// CC(C)(O)[C@H]1CC[C@H](NC(=O)c2cnc3nc(C4CC4)ccc3c2)CC1 : bioavailability value = 100
